Target or system UniProtKB P29274; metric IC50; compiled from varied reports.

In the examples that follow, each entry is paired with its recorded IC50.
compound: Cc1nc2c3cccnc3nc(-c3ccco3)n2n1
IC50: > 1000 nM

compound: CO[C@@H]1CCN(C(=O)c2nc(N[C@@H](C)c3cncc(F)c3)nc3nc(C)sc23)C1
IC50: 100 to 1000 nM

compound: CC(=O)Nc1cc2nc(C(C)C)nn2c(-c2ccco2)n1
IC50: < 10 nM

compound: CC(NC(=O)c1nc(-c2ccc3ncccc3c2)c(-c2ccn(C)n2)nc1N)c1ccccn1 (stereo not shown)
IC50: 4.7 nM

compound: Cc1nc2nc(N[C@@H](C)c3cncc(F)c3)nc(C(=O)N3CC(NC(=O)c4ccoc4)C3)c2s1
IC50: < 100 nM

From here, focus on the item given below.
For C[C@H](c1ccccn1)N(C)C(=O)c1nc(-c2ccc3ncccc3c2)c(-c2ccccc2)nc1N the compound record lists IC50 as 105 nM

* * *

Target or system Adenosine receptor A2a (Homo sapiens, UniProt P29274); metric pIC50; compiled from varied reports.
pIC50: −log10 of the molar value.

In the examples that follow, each entry is paired with its recorded pIC50.
compoundSmiles: Cc1nc2c(Br)c(NC(=O)C3CC3)nc(-c3ccco3)n2n1
pIC50: 7.00 to 8.00
//
compoundSmiles: Cc1ccc(-c2nc(NC(=O)C3CC3)cc3nc(C4COC4)nn23)o1
pIC50: > 8.00
//
compoundSmiles: Cc1nc2c(Cl)c(N)nc(-c3cccc(F)c3)n2n1
pIC50: > 8.00
//
compoundSmiles: CC(C)c1cn2cc(NC(=O)C3CC3)nc(-c3ccco3)c2n1
pIC50: > 8.00
//
compoundSmiles: C[C@@H](NC(=O)c1nc(-c2cc(Cl)c3[nH]ncc3c2)c(-c2ccc(F)cc2)nc1N)c1ccccn1
pIC50: 9.05
//
compoundSmiles: CC(=O)NC[C@H]1CCN(C(=O)c2nc(N[C@@H](C)c3cncc(F)c3)nc3nc(C)sc23)C1
pIC50: < 6.00
//
compoundSmiles: Cc1nc2nc(N[C@@H](C)c3cncc(F)c3)nc(C(=O)N3CCC3)c2s1
pIC50: 6.00 to 7.00
//
compoundSmiles: CCC(=O)Nc1cc2nc(C)nn2c(-c2ccc(C)o2)n1
pIC50: > 8.00

From here, focus on the item given below.
Lab note: compound CC(=O)Nc1cn2nc(C)nc2c(-c2ccc(C)o2)n1 tested on Adenosine receptor A2a (Homo sapiens, UniProt P29274); recorded pIC50 was > 8.00

* * *

Target or system UniProt P29274; metric IC50; compiled from varied reports.
Return type: number; implicit unit µM.

compound: CC(NC(=O)c1nc(-c2cc(Cl)c3ncccc3c2)c(-c2ccccc2)nc1N)c1cccc(C#N)n1 (centres unmarked)
measuredOn: UniProt P29274
unitTag: µM
result: 0.0035
//
compound: NCCC(=O)N(CCc1c[nH]c2ccccc12)C(C(=O)Nc1ccccc1)c1ccc(Br)cc1 (centres unmarked)
measuredOn: UniProt P29274
unitTag: µM
result: 0.243
//
compound: N#Cc1cccc(-c2nc3[nH]ccc(=O)c3cc2-c2ccc3ncccc3c2)c1
measuredOn: UniProt P29274
unitTag: µM
result: 0.0054

From here, focus on the item given below.
For C[C@H](NC(=O)c1nc(-c2ccc3ncccc3c2)c(-c2ccccc2)nc1N)c1cccc(C#N)n1 the compound record lists IC50 as 0.0054
